Tested on: Salmonella typhimurium on chicken skin
method-summary: Effect of surfactants on Salmonella attached to chicken skin, drumsticks (Tables F1-F4)
run-parameters: 0.1%; 4° C.
Experimental: The following experiments utilizing chicken legs were conducted to determine the killing potential of a variety of surfactants against Salmonella on the skin and free in solutions. To this end, chicken legs obtained from the Department of Agriculture at the University of Arkansas, Fayetteville, were incubated for thirty minutes at room temperature with a 1:5000 dilution of Salmonella typhimurium. […]
reported-property: Wash H2O, colonies

molecule: CCCCCCCCCCCCOS(=O)(=O)[O-].[Na+] [SDS, sodium dodecylsulfate, reference compound]
target-desc: Salmonella typhimurium on chicken skin
result: ++ (11-100)
//
molecule: C[C@H](CCC(=O)O)[C@H]1CC[C@H]2[C@@H]3CC[C@@H]4C[C@H](O)CC[C@]4(C)[C@H]3C[C@H](O)[C@]12C [Deoxycholic Acid, reference compound]
target-desc: Salmonella typhimurium on chicken skin
result: ++ (11-100)
//
molecule: CC(C)(C)CC(C)(C)c1ccc(OCCOCC[N+](C)(C)Cc2ccccc2)cc1 [Benzethonium Chloride, reference compound]
target-desc: Salmonella typhimurium on chicken skin
result: + (1-10)
//
molecule: CCCCCCCCCCCCCCCC[n+]1ccccc1 [CPC, cetylpyridinium chloride]
target-desc: Salmonella typhimurium on chicken skin
result: + (1-10)
